Entries annotated with measured pIC50
biological target: Bcat-Halo (UniProt P35222); test: NanoBRET Abs IC50, HEK293 cells, Bcat-Halo/TCF4-Luc; competitor TCF4-Luc
Sequence (P35222 whole entry): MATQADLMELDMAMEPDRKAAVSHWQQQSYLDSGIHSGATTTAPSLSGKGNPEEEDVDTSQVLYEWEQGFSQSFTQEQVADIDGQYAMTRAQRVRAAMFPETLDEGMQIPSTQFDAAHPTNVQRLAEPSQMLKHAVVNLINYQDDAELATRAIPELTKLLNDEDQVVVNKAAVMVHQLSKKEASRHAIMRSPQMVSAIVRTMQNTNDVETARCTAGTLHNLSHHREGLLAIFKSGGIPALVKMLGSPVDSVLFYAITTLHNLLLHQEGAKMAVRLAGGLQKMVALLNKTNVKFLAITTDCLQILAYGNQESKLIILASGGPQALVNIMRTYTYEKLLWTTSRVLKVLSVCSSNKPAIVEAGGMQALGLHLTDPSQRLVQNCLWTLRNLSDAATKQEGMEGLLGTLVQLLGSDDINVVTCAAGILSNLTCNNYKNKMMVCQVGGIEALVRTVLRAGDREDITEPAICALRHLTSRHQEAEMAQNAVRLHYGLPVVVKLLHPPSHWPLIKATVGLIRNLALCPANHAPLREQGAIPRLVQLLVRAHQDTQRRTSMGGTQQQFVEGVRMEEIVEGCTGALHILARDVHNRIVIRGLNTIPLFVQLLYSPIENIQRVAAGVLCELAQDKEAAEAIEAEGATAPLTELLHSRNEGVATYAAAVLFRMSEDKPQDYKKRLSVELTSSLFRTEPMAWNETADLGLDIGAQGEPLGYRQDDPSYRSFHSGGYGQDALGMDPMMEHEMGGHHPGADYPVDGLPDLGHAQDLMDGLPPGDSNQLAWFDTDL
pIC50: −log10 of the molar value. Starred links: 1 amine or outer side, 2 acyl side, 3 side chain; linkers in the order of their positions; H or OH if unused. Positions of bridges follow the written chain, without caps; N, C: chain ends. Non-standard residues stand in square brackets, D forms with d. Primed or numbered codes have the meaning given here. *: point of attachment. PyrS2″ = (S)-3-amino-1-((pent-4-en-1-yloxy)carbonyl)pyrrolidine-3-carboxylic acid (stapling residue), C=CCCCOC(=O)N1CC[C@@](N[*:1])(C(=O)[*:2])C1; B5(5) = 2,2-bis(4-pentenyl)glycine, 2-amino-2-(pent-4-en-1-yl)hept-6-enoic acid (stitching residue), C=CCCCC(CCCC=C)(N[*:1])C(=O)[*:2]; PyrS2 = (S)-3-amino-1-((pent-4-en-1-yloxy)carbonyl)pyrrolidine-3-carboxylic acid, C=CCCCOC(=O)N1CC[C@@](N[*:1])(C(=O)[*:2])C1; B5(3) = 2,2-bis(4-pentenyl)glycine (stitching residue), C=CCCCC(CCCC=C)(N[*:1])C(=O)[*:2]; Phe(2-Cl) = N[C@@H](Cc1ccccc1Cl)C(=O)O; Bta = N[C@@H](Cc1csc2ccccc12)C(=O)O; αAllylPro = C=CC[C@@]1(C(=O)O)CCCN1; tBuAla = CC(C)(C)C[C@H](N)C(=O)O; iPr = CC(C)*

>  <binder>
Ac-[αAllylPro]D[tBuAla][B5(3)]DDK(iPr)AFL[PyrS2″][Phe(2-Cl)][Bta]Q-NH2 (staple 1-4, 4-11) [I-1275]

>  <pIC50>
4.56

$$$$
>  <binder>
Ac-[αAllylPro]D[tBuAla][B5(5)]DDAAFK(iPr)[PyrS2][Phe(2-Cl)][Bta]L-NH2 (staple 1-4, 4-11) [I-1280]

>  <pIC50>
4.61

$$$$
>  <binder>
Ac-[αAllylPro]D[tBuAla][B5(5)]DEAAFK(iPr)[PyrS2][Phe(2-Cl)][Bta]Q-NH2 (staple 1-4, 4-11) [I-1281]

>  <pIC50>
4.65

$$$$
